All values here come from patent US8716281B2.

Biological target: wild-type human ALK cytoplasmic domain (amino acids 1058-1620) (Homo sapiens, UniProt Q9UM73)
Construct: The cytoplasmic domain (amino acids 1058-1620) of wild-type human ALK; GST (N); made in house; host or cells: SF9 insect cells
Sequence (Q9UM73 1058-1620): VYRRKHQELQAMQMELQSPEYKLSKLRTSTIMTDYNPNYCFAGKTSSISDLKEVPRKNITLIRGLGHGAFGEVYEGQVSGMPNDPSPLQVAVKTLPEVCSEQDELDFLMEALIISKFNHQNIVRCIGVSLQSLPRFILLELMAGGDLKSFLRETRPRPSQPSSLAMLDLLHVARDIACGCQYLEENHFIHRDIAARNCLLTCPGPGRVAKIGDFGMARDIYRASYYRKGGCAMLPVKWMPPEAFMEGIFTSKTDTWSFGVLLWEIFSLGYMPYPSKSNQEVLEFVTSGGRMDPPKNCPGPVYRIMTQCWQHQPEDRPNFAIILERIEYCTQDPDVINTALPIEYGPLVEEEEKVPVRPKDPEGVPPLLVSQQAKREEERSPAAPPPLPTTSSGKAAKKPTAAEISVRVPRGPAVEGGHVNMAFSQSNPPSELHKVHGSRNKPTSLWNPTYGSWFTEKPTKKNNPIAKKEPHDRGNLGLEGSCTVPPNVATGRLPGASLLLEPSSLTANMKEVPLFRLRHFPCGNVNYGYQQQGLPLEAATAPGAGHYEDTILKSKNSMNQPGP
Assay: ALK Inhibition in Enzyme Assay (Lance TR-FRET)
Format: biochemical
Conditions: 2 nM enzyme, ATP at 40 μM (Km apparent), 90 minutes, mean of three replicates; read-out: ALK IC50
Protocol: ALK Inhibition in Enzyme Assay Kinase activity of the purified protein was assessed using a Lance® TR-FRET assay. […] Phosphorylation of the peptide substrate was detected using the Lance® detection reagents streptavidin-allophycocyanin (SA-APC) and Eu-W1024 anti-phosphotyrosine antibody (PT66) from Perkin Elmer Life Sciences (Waltham, Mass.). The plates were read on a RUBY star plate reader (BMG LABTECH, Cary, N.C.) with an excitation wavelength of 320 nm.
Recorded IC50 by entry
READOUT_KIND: IC50

- COMPOUND: "COc1cc(Nc2nccc(N3CCC[C@H](C(=O)NCCc4cn5ccccc5n4)C3)n2)cc(OC)c1OC [Example 61]"
  READOUT_KIND: "IC50"
  ENDPOINT_VALUE: "5 to 10 µM"
- COMPOUND: "COc1cc(Nc2nccc(N3CCC[C@H](C(=O)NCc4ccc(C)c(C)c4)C3)n2)cc(OC)c1OC [Example 83]"
  READOUT_KIND: "IC50"
  ENDPOINT_VALUE: "0.1 to 1 µM"
- COMPOUND: "Cc1ccc(CNC(=O)[C@H]2CCCN(c3ccnc(Nc4ccc(-c5cnco5)cc4)n3)C2)cc1 [Example 189]"
  READOUT_KIND: "IC50"
  ENDPOINT_VALUE: "1 to 5 µM"
- COMPOUND: "COc1cc(Nc2nccc(N3CCC[C@H](C(=O)NCc4cc(Cl)ccc4C)C3)n2)cc(OC)c1OC [Example 28]"
  READOUT_KIND: "IC50"
  ENDPOINT_VALUE: "0.05 to 0.1 µM"
- COMPOUND: "COc1cc(Nc2nccc(N3CCC[C@H](C(=O)NCCc4ccc(F)cc4)C3)n2)cc(OC)c1OC [Example 100]"
  READOUT_KIND: "IC50"
  ENDPOINT_VALUE: "0.1 to 1 µM"
- COMPOUND: "COc1cc(Nc2ncc(C)c(N3CCC[C@H](C(=O)NCc4ccc(C)cc4)C3)n2)cc(OC)c1OC [Example 8]"
  READOUT_KIND: "IC50"
  ENDPOINT_VALUE: "1 to 5 µM"
- COMPOUND: "COc1cc(Nc2nc(C)cc(N3CCC[C@H](C(=O)NCc4ccc(C)cc4)C3)n2)cc(OC)c1OC [Example 11]"
  READOUT_KIND: "IC50"
  ENDPOINT_VALUE: "5 to 10 µM"

* * *

Recorded IC50 by entry
target: wild-type human ALK cytoplasmic domain (amino acids 1058-1620) (Homo sapiens); construct: The cytoplasmic domain (amino acids 1058-1620) of wild-type human ALK; GST (N); made in house; host or cells: SF9 insect cells; test: ALK Inhibition in Enzyme Assay (Lance TR-FRET); type: biochemical; conditions: 2 nM enzyme, ATP at 40 μM (Km apparent), 90 minutes, mean of three replicates; read-out: ALK IC50
READOUT_KIND: IC50

- COMPOUND: "Cc1ccc(CNC(=O)[C@H]2CCCN(c3ccnc(Nc4ccc(C(=O)c5ccccc5)cc4)n3)C2)cc1 [Example 186]"
  SYSTEM_UNDER_TEST: "wild-type human ALK cytoplasmic domain (amino acids 1058-1620) (Homo sapiens)"
  ENDPOINT_VALUE: "5000 to 10000 nM"
- COMPOUND: "Cc1ccc(CNC(=O)[C@H]2CCCN(c3ccnc(Nc4cccc(Oc5ccccc5)c4)n3)C2)cc1 [Example 149]"
  SYSTEM_UNDER_TEST: "wild-type human ALK cytoplasmic domain (amino acids 1058-1620) (Homo sapiens)"
  ENDPOINT_VALUE: "100 to 1000 nM"
- COMPOUND: "COc1cc(Nc2nccc(N3CCC[C@H](C(=O)NCCc4ccc(C(F)(F)F)cc4)C3)n2)cc(OC)c1OC [Example 91]"
  SYSTEM_UNDER_TEST: "wild-type human ALK cytoplasmic domain (amino acids 1058-1620) (Homo sapiens)"
  ENDPOINT_VALUE: "50 to 100 nM"
- COMPOUND: "COc1cc(Nc2nccc(N3CCC[C@H](C(=O)NC(C)(C)c4ccccc4)C3)n2)cc(OC)c1OC [Example 54]"
  SYSTEM_UNDER_TEST: "wild-type human ALK cytoplasmic domain (amino acids 1058-1620) (Homo sapiens)"
  ENDPOINT_VALUE: "1000 to 5000 nM"
- COMPOUND: "Cc1ccc(CNC(=O)[C@H]2CCCN(c3ccnc(Nc4cc(C(F)(F)F)cc(C(F)(F)F)c4)n3)C2)cc1 [Example 163]"
  SYSTEM_UNDER_TEST: "wild-type human ALK cytoplasmic domain (amino acids 1058-1620) (Homo sapiens)"
  ENDPOINT_VALUE: "100 to 1000 nM"
- COMPOUND: "CCOc1ccc(Nc2nccc(N3CCC[C@H](C(=O)NCc4ccc(C)cc4)C3)n2)cc1 [Example 192]"
  SYSTEM_UNDER_TEST: "wild-type human ALK cytoplasmic domain (amino acids 1058-1620) (Homo sapiens)"
  ENDPOINT_VALUE: "1000 to 5000 nM"
- COMPOUND: "COc1cc(Nc2nccc(N3CCC[C@H](C(=O)NCc4ccc(NC(C)=O)cc4)C3)n2)cc(OC)c1OC [Example 124]"
  SYSTEM_UNDER_TEST: "wild-type human ALK cytoplasmic domain (amino acids 1058-1620) (Homo sapiens)"
  ENDPOINT_VALUE: "1000 to 5000 nM"

* * *

molecular target: wild-type human ALK cytoplasmic domain (amino acids 1058-1620) (Homo sapiens, UniProt Q9UM73); construct: The cytoplasmic domain (amino acids 1058-1620) of wild-type human ALK; GST (N); made in house; host or cells: SF9 insect cells; assay: ALK Inhibition in Enzyme Assay (Lance TR-FRET); assay type: biochemical; conditions: 2 nM enzyme, ATP at 40 μM (Km apparent), 90 minutes, mean of three replicates; read-out: ALK IC50
pIC50: −log10 of the molar value.
Recorded pIC50 by entry

- COMPOUND: "COc1cc(Nc2nccc(N3CCC[C@H](C(=O)NCc4cccc(F)c4)C3)n2)cc(OC)c1OC"
  pIC50: "6.00 to 7.00"
- COMPOUND: "COc1cc(Nc2nccc(N3CCC[C@H](C(=O)NCc4cccc(-c5ccc(Cl)cc5)c4)C3)n2)cc(OC)c1OC"
  pIC50: "> 7.30"
- COMPOUND: "COc1cccc([C@@H](C)NC(=O)[C@H]2CCCN(c3ccnc(Nc4cc(OC)c(OC)c(OC)c4)n3)C2)c1"
  pIC50: "5.30 to 6.00"
- COMPOUND: "COc1cc(Nc2nccc(N3CCC[C@H](C(=O)NCCc4cccc(Br)c4)C3)n2)cc(OC)c1OC"
  pIC50: "> 7.30"
- COMPOUND: "COc1cc(Nc2nccc(N3CCC[C@H](C(=O)NCc4ccc(-c5cc(Cl)cc(Cl)c5)cc4)C3)n2)cc(OC)c1OC"
  pIC50: "5.30 to 6.00"
- COMPOUND: "Cc1ccc(CNC(=O)[C@H]2CCCN(c3ccnc(Nc4cccc(-c5ccccc5)c4)n3)C2)cc1"
  pIC50: "6.00 to 7.00"
- COMPOUND: "Cc1ccc(CNC(=O)[C@H]2CCCN(c3ccnc(Nc4cc(C5CCN(C(=O)OC(C)(C)C)CC5)[nH]n4)n3)C2)cc1"
  pIC50: "5.30 to 6.00"
- COMPOUND: "COc1cc(Nc2nccc(N3CCC[C@H](C(=O)NCCc4ccc(C)cc4)C3)n2)cc(OC)c1OC"
  pIC50: "6.00 to 7.00"
- COMPOUND: "COc1cc(Nc2nc(Cl)cc(N3CCC[C@H](C(=O)NCc4ccc(C)cc4)C3)n2)cc(OC)c1OC"
  pIC50: "< 5.00"
- COMPOUND: "COc1cc(Nc2nccc(N3CCC[C@H](C(=O)NCCOc4ccccc4)C3)n2)cc(OC)c1OC"
  pIC50: "6.00 to 7.00"
- COMPOUND: "O=C(NCc1ccc(OC(F)(F)F)cc1)[C@H]1CCCN(c2ccnc(Nc3ccc(N4CCOCC4)cc3)n2)C1"
  pIC50: "6.00 to 7.00"
- COMPOUND: "Cc1ccc(CNC(=O)[C@H]2CCCN(c3ccnc(Nc4ccc(C(N)=O)cc4)n3)C2)cc1"
  pIC50: "5.30 to 6.00"
- COMPOUND: "COc1cc(Nc2nccc(N3CCOC(C(=O)NCc4ccc(C)cc4)C3)n2)cc(OC)c1OC (stereo not shown)"
  pIC50: "5.30 to 6.00"
- COMPOUND: "Cc1ccc(CNC(=O)[C@H]2CCCN(c3ccnc(Nc4cc(-c5ccc(C)cc5)[nH]n4)n3)C2)cc1"
  pIC50: "5.00 to 5.30"
- COMPOUND: "COc1cc(Nc2nccc(N3CCC[C@H](C(=O)NC[C@@H](C)c4ccccc4)C3)n2)cc(OC)c1OC"
  pIC50: "6.00 to 7.00"
- COMPOUND: "COc1cc(Nc2nccc(N3CCC[C@H](C(=O)NCc4ccc(-c5ccc(F)cc5)cc4)C3)n2)cc(OC)c1OC"
  pIC50: "6.00 to 7.00"
- COMPOUND: "CSc1cccc(Nc2nccc(N3CCC[C@H](C(=O)NCc4ccc(C)cc4)C3)n2)c1"
  pIC50: "6.00 to 7.00"
- COMPOUND: "COc1cc(Nc2nccc(N3CCC[C@H](C(=O)NCCc4cccc(C)c4)C3)n2)cc(OC)c1OC"
  pIC50: "7.00 to 7.30"
- COMPOUND: "COc1cc(Nc2nccc(N3CCC[C@H](C(=O)NCc4ccc(Oc5ccc(F)cc5)cc4)C3)n2)cc(OC)c1OC"
  pIC50: "6.00 to 7.00"
- COMPOUND: "COc1cc(Nc2nccc(N3CCC[C@H](C(=O)NCCc4cccc(C(F)(F)F)c4)C3)n2)cc(OC)c1OC"
  pIC50: "> 7.30"
- COMPOUND: "COc1cc(Nc2nccc(N3CCC[C@H](C(=O)NCc4cccc(OC(F)F)c4)C3)n2)cc(OC)c1OC"
  pIC50: "> 7.30"
- COMPOUND: "COc1cc(F)cc(Nc2nccc(N3CCC[C@H](C(=O)NCc4ccc(C)cc4)C3)n2)c1"
  pIC50: "6.00 to 7.00"
- COMPOUND: "COc1cc(Nc2nccc(N3CCC[C@H](C(=O)NCc4ccc(Oc5ccc(C)cc5)cc4)C3)n2)cc(OC)c1OC"
  pIC50: "6.00 to 7.00"
- COMPOUND: "Cc1ccc(CNC(=O)[C@H]2CCCN(c3ccnc(Nc4cc(C)cc(C)c4)n3)C2)cc1"
  pIC50: "5.30 to 6.00"
- COMPOUND: "COc1cc(Nc2nccc(N3CCC[C@H](C(=O)NCCc4cccc(F)c4)C3)n2)cc(OC)c1OC"
  pIC50: "6.00 to 7.00"
- COMPOUND: "COc1cc(Nc2nccc(N3CCC[C@H](C(=O)NCc4ccc5ccsc5c4)C3)n2)cc(OC)c1OC"
  pIC50: "6.00 to 7.00"
- COMPOUND: "COc1cc(Nc2nccc(N3CCC[C@H](C(=O)NC(C)c4ccc5[nH]ccc5c4)C3)n2)cc(OC)c1OC (stereo partly shown)"
  pIC50: "6.00 to 7.00"
- COMPOUND: "Cc1ccc(CNC(=O)[C@H]2CCCN(c3ccnc(Nc4ccc(C)cc4)n3)C2)cc1"
  pIC50: "5.30 to 6.00"
